- TARGET_SYSTEM: T1, human LRRC33-proTGFβ1 complex (human, UniProt Q86YC3 19-650; P01137 30-390)
- T1 construct: also called hLRRC33-proTGFβ1; hLRRC33
- T1 sequence (Q86YC3 other isoform, or with tags, fused parts or gaps limits assumed, chain 1 of 2): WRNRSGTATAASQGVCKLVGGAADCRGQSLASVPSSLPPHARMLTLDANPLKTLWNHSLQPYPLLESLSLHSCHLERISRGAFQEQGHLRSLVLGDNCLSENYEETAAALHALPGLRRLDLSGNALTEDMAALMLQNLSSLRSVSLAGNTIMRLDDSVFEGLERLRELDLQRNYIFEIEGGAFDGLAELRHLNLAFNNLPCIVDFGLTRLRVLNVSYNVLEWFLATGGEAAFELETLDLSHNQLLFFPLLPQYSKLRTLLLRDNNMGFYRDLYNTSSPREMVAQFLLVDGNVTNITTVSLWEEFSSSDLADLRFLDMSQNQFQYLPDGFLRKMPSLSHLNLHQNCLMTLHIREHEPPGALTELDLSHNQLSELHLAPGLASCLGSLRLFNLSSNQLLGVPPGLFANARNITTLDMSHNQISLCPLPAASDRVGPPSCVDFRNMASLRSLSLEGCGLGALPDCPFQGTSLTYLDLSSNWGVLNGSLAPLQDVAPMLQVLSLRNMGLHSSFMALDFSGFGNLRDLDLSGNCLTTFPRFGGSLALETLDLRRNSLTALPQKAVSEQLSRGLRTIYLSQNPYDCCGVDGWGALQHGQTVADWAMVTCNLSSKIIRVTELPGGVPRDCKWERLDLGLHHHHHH
- T1 sequence (P01137 30-390 limits assumed, chain 2 of 2): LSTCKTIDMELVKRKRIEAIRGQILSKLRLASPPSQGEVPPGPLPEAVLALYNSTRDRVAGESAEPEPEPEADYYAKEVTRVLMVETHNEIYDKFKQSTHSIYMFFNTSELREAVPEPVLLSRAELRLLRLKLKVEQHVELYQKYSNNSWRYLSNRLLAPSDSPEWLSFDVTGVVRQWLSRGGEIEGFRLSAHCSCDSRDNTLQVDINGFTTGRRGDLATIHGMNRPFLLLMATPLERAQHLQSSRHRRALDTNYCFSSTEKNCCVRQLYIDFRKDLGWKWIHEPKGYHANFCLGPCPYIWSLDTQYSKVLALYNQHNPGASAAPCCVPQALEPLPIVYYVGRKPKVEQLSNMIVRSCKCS
- ASSAY_COMMENT: BLI (Octet)
PROPERTY_LABEL: pKd
Would you please state pKd, meaning minus log10 of the concentration in mol/L, as a bare number?

Q: May I ask what pKd has been recorded for Ab13 (antibody, V domains shown) VH: EVQLLESGGGLVQPGGSLRLSCAASGFTFADYAMTWVRQAPGKGLEWVSAISSFASAIYYADSVKGRFTISRDNSKNTLYLQMNSLRAEDTAVYYCARVSSGHWDFDYWGQGTLVTVSS VL: DIQMTQSPSSLSASVGDRVTITCRASQSISSYLNWYQQKPGKAPKLLIYAASSLQSGVPSRFSGSGSGTDFTLTISSLQPEDFATYYCQQVYDPPLTFGGGTKVEIK ?
Result: 8.85

Data origin: patent US20220064275A1
